Experiment: Metabolic stability in rat liver microsomes assessed as half life at 5 uM incubated for 60 mins by UV-Vis spectrophotometry
Assay type: ADME, Microsome
readout.label: half-life at 5 µM (min)
Provide the reading as a plain figure in min.

Cc1cc(C(N)=O)c(-c2cccc(OC(=O)NCCN3CCN(c4ccccc4)CC3)c2)o1 19.9

Pending compound:
The reported value for NC(=O)c1ccn(-c2cccc(OC(=O)NCCCCCCc3ccccc3)c2)c1 in terms of half-life at 5 µM is 50.3

* * *

Biological target: D(3) dopamine receptor (Homo sapiens, UniProt P35462)
Sequence (P35462 whole entry): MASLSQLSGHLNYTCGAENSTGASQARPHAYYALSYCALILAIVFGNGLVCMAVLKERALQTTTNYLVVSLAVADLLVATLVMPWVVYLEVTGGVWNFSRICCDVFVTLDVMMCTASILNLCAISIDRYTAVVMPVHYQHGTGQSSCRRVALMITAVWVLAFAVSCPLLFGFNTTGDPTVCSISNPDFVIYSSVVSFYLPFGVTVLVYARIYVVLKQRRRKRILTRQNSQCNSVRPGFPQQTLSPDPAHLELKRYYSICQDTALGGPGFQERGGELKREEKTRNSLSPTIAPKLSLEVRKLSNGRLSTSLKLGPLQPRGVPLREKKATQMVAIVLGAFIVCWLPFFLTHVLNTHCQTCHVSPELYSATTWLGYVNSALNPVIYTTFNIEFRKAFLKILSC
Strictly below 80 nM in Ki: y. Otherwise: n.

Cc1cc(C(N)=O)c(-c2cccc(OC(=O)NCCCN3CCN(c4ccccc4)CC3)c2)o1 y
NC(=O)c1ccn(-c2cccc(OC(=O)NCCCN3CCN(c4ccccc4)CC3)c2)c1 y
Cn1c(C(N)=O)ccc1-c1cccc(OC(=O)NCCN2CCN(c3ccccc3)CC2)c1 y
NC(=O)c1ccn(-c2cccc(OC(=O)NCCN3CCN(c4ccccc4)CC3)c2)c1 n

Query: Strictly below 80 nM in Ki? Cc1cc(C(N)=O)c(-c2cccc(OC(=O)NCCN3CCN(c4ccccc4)CC3)c2)o1
Reply: n

Query: State whether 80 nM exceeds Ki recorded for Cc1cc(C(N)=O)c(-c2cccc(OC(=O)NCCN3CCN(c4ccccc4)CC3)c2)s1 .
Reply: n

* * *

Biological target: D(2) dopamine receptor (Homo sapiens)
Sequence (P14416 whole entry): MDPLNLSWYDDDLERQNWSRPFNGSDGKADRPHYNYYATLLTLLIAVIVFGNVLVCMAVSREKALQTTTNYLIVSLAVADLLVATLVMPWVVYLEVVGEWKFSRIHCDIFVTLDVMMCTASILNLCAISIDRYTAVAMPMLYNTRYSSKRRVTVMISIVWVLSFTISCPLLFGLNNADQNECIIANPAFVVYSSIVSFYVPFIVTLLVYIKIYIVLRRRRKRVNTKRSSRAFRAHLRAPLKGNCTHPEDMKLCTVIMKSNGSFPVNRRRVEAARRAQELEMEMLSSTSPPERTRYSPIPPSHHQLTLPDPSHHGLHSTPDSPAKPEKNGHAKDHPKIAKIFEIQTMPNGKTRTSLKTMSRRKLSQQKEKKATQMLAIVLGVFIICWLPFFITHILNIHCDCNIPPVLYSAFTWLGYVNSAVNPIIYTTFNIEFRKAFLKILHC
Test: Displacement of [3H]-spiperone from human D2 receptor expressed in CHO cells co-expressing Galpha16 incubated for 120 mins by liquid scintillation counting method
Assay type: cell-based
readout.label: pKi
Kindly note that pKi refers to -log10 of the concentration in mol/L and answer with the value alone.

Recorded results for 3 molecules are shown here.
NC(=O)c1ccn(-c2cccc(OC(=O)NCCCN3CCN(c4ccccc4)CC3)c2)c1 7.18
Cc1cc(C(N)=O)c(-c2cccc(OC(=O)NCCN3CCN(c4ccccc4)CC3)c2)o1 6.86
Cn1c(C(N)=O)ccc1-c1cccc(OC(=O)NCCN2CCN(c3ccccc3)CC2)c1 7.25

Note to self: pKi recorded for Cc1cc(C(N)=O)c(-c2cccc(OC(=O)NCCCN3CCN(c4ccccc4)CC3)c2)o1 was 7.54

Recorded pKi (molecule NC(=O)c1ccn(-c2cccc(OC(=O)NCCN3CCN(c4ccccc4)CC3)c2)c1 ): 6.73

Consider Cc1cc(C(N)=O)c(-c2cccc(OC(=O)NCCN3CCN(c4ccccc4)CC3)c2)s1 . Its measured pKi is 6.67

* * *

Target: Fatty-acid amide hydrolase 1 (Mus musculus)
Sequence (O08914 whole entry): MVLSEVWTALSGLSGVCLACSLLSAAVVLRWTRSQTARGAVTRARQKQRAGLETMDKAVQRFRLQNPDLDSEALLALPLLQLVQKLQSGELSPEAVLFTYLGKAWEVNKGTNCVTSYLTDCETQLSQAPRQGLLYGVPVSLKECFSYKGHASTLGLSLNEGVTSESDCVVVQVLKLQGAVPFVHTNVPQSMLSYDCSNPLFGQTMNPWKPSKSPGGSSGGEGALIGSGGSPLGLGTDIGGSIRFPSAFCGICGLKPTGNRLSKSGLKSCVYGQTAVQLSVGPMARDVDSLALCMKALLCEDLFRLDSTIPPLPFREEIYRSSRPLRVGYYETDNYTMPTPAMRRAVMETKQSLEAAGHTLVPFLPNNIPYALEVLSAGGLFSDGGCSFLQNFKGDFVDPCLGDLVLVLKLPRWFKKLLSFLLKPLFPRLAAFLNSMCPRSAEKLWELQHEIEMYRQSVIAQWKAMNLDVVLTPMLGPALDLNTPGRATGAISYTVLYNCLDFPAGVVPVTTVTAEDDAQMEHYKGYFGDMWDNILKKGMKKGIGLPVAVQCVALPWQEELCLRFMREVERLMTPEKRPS
readout.label: Ki (nM)
A number alone suffices; assume nM.

Worked examples follow.
Cc1cc(C(N)=O)c(-c2cccc(OC(=O)NCCCN3CCN(c4ccccc4)CC3)c2)o1 16
Cc1cc(C(N)=O)c(-c2cccc(OC(=O)NCCN3CCN(c4ccccc4)CC3)c2)[nH]1 50
Cn1c(C(N)=O)ccc1-c1cccc(OC(=O)NCCN2CCN(c3ccccc3)CC2)c1 203
Cc1cc(C(N)=O)c(-c2cccc(OC(=O)NCCN3CCN(c4ccccc4)CC3)c2)n1C 46
NC(=O)c1ccn(-c2cccc(OC(=O)NCCN3CCN(c4ccccc4)CC3)c2)c1 16

Per the record, NC(=O)c1ccn(-c2cccc(OC(=O)NCCCN3CCN(c4ccccc4)CC3)c2)c1 has Ki of 25

// NC(=O)c1cn(-c2cccc(OC(=O)NCCN3CCN(c4ccccc4)CC3)c2)nn1 : Ki value = 194

Entry under test: Cc1cc(C(N)=O)c(-c2cccc(OC(=O)NCCN3CCN(c4ccccc4)CC3)c2)s1 . Its Ki was 6.88

Sure, the documented Ki for Cc1cc(C(N)=O)c(-c2cccc(OC(=O)NCCN3CCN(c4ccccc4)CC3)c2)o1 is 0.23

* * *

// reported half-life at 5 µM per item
Test: Metabolic stability in human liver microsomes assessed as half life at 5 uM incubated for 60 mins by UV-Vis spectrophotometry
Format: ADME, Microsome
A number alone suffices; assume min.

Cc1cc(C(N)=O)c(-c2cccc(OC(=O)NCCN3CCN(c4ccccc4)CC3)c2)o1 24.4

Turning now to a further molecule:
Recorded half-life at 5 µM (molecule NC(=O)c1ccn(-c2cccc(OC(=O)NCCCCCCc3ccccc3)c2)c1 ): 27.8

* * *

Experiment: Metabolic stability in human liver microsomes assessed as intrinsic clearance at 5 uM incubated for 60 mins by UV-Vis spectrophotometry
Format: ADME, Microsome
Conditions: read-out: CLH
// reported microsomal CLint at 5 µM per item
Hi! Could you send only the number? It should be in µL/min/mg, unit omitted.

NC(=O)c1ccn(-c2cccc(OC(=O)NCCCCCCc3ccccc3)c2)c1 41.6

What the record says about Cc1cc(C(N)=O)c(-c2cccc(OC(=O)NCCN3CCN(c4ccccc4)CC3)c2)o1 : microsomal CLint at 5 µM is 47.4

* * *

Experiment: Solubility of compound in DMSO at pH 7.4 incubated for […] by HPLC/UV/DAD analysis
Format: physicochemical
readout.label: solubility
Numeric answer plus unit only.

# solubility of Cc1cc(C(N)=O)c(-c2cccc(OC(=O)NCCN3CCN(c4ccccc4)CC3)c2)o1 = 2 µM

* * *

Biological target: Voltage-gated inwardly rectifying potassium channel KCNH2 (Homo sapiens)
Sequence (Q12809 whole entry): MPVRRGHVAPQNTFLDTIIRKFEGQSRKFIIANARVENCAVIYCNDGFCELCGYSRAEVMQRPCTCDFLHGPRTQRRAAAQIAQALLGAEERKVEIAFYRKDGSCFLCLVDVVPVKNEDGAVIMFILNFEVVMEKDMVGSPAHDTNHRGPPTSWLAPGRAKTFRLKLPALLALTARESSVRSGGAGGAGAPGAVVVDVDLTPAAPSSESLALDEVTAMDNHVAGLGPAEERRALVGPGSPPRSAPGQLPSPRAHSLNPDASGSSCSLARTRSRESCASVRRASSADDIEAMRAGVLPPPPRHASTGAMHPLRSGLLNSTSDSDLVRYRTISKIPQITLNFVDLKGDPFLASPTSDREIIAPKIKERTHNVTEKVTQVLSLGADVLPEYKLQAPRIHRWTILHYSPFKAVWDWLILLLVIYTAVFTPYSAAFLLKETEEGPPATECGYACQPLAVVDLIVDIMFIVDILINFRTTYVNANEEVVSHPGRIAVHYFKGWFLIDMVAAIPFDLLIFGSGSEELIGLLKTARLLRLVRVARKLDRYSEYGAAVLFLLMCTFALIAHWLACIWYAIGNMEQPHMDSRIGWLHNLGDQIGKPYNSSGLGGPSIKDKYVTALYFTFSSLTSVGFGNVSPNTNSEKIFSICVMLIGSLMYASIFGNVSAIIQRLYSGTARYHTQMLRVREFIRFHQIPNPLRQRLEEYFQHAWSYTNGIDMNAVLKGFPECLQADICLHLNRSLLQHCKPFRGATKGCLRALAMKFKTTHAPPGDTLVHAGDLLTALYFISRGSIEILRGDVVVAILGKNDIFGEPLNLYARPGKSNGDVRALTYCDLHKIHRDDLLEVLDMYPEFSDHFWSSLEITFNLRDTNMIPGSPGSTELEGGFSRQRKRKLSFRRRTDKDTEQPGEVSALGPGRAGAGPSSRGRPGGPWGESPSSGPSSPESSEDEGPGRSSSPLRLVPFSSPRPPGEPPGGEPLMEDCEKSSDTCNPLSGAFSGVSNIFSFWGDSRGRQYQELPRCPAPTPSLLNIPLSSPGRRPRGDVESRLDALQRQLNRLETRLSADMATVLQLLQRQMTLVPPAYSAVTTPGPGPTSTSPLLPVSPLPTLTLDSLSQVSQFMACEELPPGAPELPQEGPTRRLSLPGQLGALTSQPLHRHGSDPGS
Assay: Inhibition of human ERG expressed in HEK293 cells […] by patch clamp assay
Reported log10(IC50) is given for each of the following compounds.
Scale: decimal log of IC50, IC50 in µM.

Example entries begin here.
NC(=O)c1ccn(-c2cccc(OC(=O)NCCN3CCN(c4ccccc4)CC3)c2)c1 0.72
NC(=O)c1ccn(-c2cccc(OC(=O)NCCCN3CCN(c4ccccc4)CC3)c2)c1 0.54
Cc1cc(C(N)=O)c(-c2cccc(OC(=O)NCCN3CCN(c4ccccc4)CC3)c2)s1 -0.55
Cn1c(C(N)=O)ccc1-c1cccc(OC(=O)NCCN2CCN(c3ccccc3)CC2)c1 0.81

Next compound, please.
Looking up Cc1cc(C(N)=O)c(-c2cccc(OC(=O)NCCCN3CCN(c4ccccc4)CC3)c2)o1 , I see its log10(IC50) listed as 0.04

* * *

Target: Fatty-acid amide hydrolase 1 (Mus musculus, UniProt O08914)
Test: Inhibition of FAAH in mouse brain membranes using [14C]-AEA as substrate incubated for 15 mins by scintillation counting method
readout.label: IC50 (nM)
Numbers only; they are read as nM.

Use the examples below as a reference point.
Cc1cc(C(N)=O)c(-c2cccc(OC(=O)NCCCN3CCN(c4ccccc4)CC3)c2)o1 62
NC(=O)c1ccn(-c2cccc(OC(=O)NCCN3CCN(c4ccccc4)CC3)c2)c1 58
Cc1cc(C(N)=O)c(-c2cccc(OC(=O)NCCN3CCN(c4ccccc4)CC3)c2)n1C 175
NC(=O)c1cn(-c2cccc(OC(=O)NCCN3CCN(c4ccccc4)CC3)c2)nn1 757
Cc1cc(C(N)=O)c(-c2cccc(OC(=O)NCCN3CCN(c4ccccc4)CC3)c2)[nH]1 195
Cc1cc(C(N)=O)c(-c2cccc(OC(=O)NCCN3CCN(c4ccccc4)CC3)c2)s1 26

Would you kindly look at the next entry?
Sample NC(=O)c1ccn(-c2cccc(NC(=O)NCCN3CCN(c4ccccc4)CC3)c2)c1 ; IC50 observed: 1600

* * *

Assay: Solubility of compound in DMSO at pH 3 incubated for […] by HPLC/UV/DAD analysis
Type: physicochemical
readout.label: solubility (µM)
Quick reminder: number only, in µM, skip the unit.

NC(=O)c1ccn(-c2cccc(OC(=O)NCCCCCCc3ccccc3)c2)c1 465

Please find the next compound below.
solubility reported for this compound Cc1cc(C(N)=O)c(-c2cccc(OC(=O)NCCN3CCN(c4ccccc4)CC3)c2)o1 : 991

* * *

Examples of compounds with documented pIC50 follow.
Target: Fatty-acid amide hydrolase 1 (Mus musculus, UniProt O08914)
Sequence (O08914 whole entry): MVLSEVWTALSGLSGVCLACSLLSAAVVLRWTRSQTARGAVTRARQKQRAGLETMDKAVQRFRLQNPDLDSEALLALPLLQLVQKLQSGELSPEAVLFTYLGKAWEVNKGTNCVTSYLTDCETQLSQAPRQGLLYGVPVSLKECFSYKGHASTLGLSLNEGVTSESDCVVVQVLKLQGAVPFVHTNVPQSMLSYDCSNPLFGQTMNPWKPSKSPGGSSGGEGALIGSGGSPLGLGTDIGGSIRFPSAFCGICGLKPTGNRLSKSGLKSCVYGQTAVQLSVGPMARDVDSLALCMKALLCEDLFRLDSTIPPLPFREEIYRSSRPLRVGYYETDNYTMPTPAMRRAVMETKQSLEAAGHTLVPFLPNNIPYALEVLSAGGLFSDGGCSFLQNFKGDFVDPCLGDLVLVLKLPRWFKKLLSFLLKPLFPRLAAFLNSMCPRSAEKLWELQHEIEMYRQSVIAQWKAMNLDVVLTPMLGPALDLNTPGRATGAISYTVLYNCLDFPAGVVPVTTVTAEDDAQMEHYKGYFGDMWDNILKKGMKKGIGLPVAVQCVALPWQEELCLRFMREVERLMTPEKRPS
Assay: Inhibition of FAAH in mouse brain membranes using [14C]-AEA as substrate incubated for 15 mins by scintillation counting method
For clarity, pIC50 is expressed as the negative log10 of concentration in mol/L.

For orientation, consider the following solved cases.
Cc1cc(C(N)=O)c(-c2cccc(OC(=O)NCCN3CCN(c4ccccc4)CC3)c2)o1 9.05
Cn1c(C(N)=O)ccc1-c1cccc(OC(=O)NCCN2CCN(c3ccccc3)CC2)c1 6.10

Read the next record carefully.
Form field pIC50, entry NC(=O)c1ccn(-c2cccc(OC(=O)NCCCN3CCN(c4ccccc4)CC3)c2)c1 : 7.03
